Each entry below carries its reported EC50.
Tested on: Streptococcus
Assay: GAS UMAA2166 growth inhibition – luminescence, BacTiterGlo, counter-screen for streptokinase expression inhibitor project, dose response (AID 1915);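 further: potency for reduction of bacterial viability or growth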
Type: functional, organism-based
Active and inactive are the calls of the source.

A selection of reference data follows.
1) O=C(Nc1ccc(-c2csc(Nc3ccc(Cl)cc3)n2)cc1)c1cc([N+](=O)[O-])cc(C(F)(F)F)c1 = 7.28 µM (active)
2) COc1ccc(C(=O)Nc2cccc(-c3ccc(N4CCOCC4)nn3)c2)cc1 = > 150 µM (not active)
3) COc1ccc(/C=C/C(=O)NC(=S)NNC(=O)c2cc(OC)c(OC)c(OC)c2)cc1OC = 17.8 µM (active)

Looking up Cc1ccc(S(=O)(=O)N(C)CC(=O)N2CC(C)OC(C)C2)cc1 (centres undefined) , I found its EC50 recorded as > 150 µM (not active)

###

Tested on: H4
Test: Luminescence Cell-Based Dose Response HTS to Identify Activators of 5'UTR Stem-Loop Driven Prion Protein mRNA Translation in H4 Neuroglioblastoma Cells. [Related pubchem assays: 1829 (Project Summary), 1814 (Primary HTS)]
Assay type: functional
Conditions: Homo sapiens
Calls of active or inactive are those of the source.
measurement.kind: EC50

A selection of reference data follows.
1) c1ccc2c(c1)CCN(c1nc3ccccc3n3cnnc13)C2 = 29.1 µM (active)
2) O=C(CCCc1c[nH]c2ccccc12)N1CCCCCC1 = 34.2 µM (active)
3) CCCCNC(=O)C1CCN(Cc2ccc(OCc3ccccc3)cc2)CC1 = 63.1 µM (active)
4) Nc1nn2cc(-c3ccc(Br)cc3)nc2c2ccccc12 = 2.38 µM (active)

Looking up `O=C(c1ccccc1)N1CCN(c2ncnc3c(-c4ccccc4)nsc23)CC1` , I found its EC50 recorded as 17 µM (active)

###

Molecular target: Luciferin 4-monooxygenase (Photinus pyralis, UniProt P08659)
Sequence (P08659 whole entry): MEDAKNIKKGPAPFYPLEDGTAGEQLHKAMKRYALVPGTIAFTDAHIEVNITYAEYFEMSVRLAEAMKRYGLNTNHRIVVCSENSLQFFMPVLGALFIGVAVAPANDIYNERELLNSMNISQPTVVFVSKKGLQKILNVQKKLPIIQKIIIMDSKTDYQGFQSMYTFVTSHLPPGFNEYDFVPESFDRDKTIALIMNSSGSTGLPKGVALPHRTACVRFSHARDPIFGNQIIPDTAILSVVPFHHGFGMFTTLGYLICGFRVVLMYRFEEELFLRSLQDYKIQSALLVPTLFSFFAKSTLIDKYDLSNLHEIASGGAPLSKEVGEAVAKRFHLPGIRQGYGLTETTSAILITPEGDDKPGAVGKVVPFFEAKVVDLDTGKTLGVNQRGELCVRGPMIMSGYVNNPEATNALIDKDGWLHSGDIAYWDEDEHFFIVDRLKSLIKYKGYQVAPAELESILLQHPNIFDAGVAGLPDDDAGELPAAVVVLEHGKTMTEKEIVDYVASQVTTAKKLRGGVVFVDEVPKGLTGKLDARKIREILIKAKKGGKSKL
Test: Counter Screen for Luciferase-based Assay Positives. [Related pubchem assays: 620, 618, 411 ]
The source made the active and inactive calls.
Each entry below carries its reported EC50.

Looking up `CC(C)(C)C(=O)N1CCc2cc(-c3csc(N)n3)ccc21` , I found its EC50 recorded as 9.92 µM (active)

###

Target: Kappa-type opioid receptor (Homo sapiens, UniProt P41145)
Sequence (P41145 whole entry): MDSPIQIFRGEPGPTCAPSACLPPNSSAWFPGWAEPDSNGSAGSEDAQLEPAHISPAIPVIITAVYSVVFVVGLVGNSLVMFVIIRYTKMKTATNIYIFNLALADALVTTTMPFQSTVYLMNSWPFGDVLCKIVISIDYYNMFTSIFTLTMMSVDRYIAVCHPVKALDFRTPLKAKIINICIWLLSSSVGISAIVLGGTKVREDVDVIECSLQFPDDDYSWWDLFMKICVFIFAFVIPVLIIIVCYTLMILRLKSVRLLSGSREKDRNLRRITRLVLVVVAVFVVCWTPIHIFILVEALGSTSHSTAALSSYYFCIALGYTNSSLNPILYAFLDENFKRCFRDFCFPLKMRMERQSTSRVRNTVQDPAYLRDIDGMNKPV
Format: functional
pIC50: −log10 of the molar value.
measurement.kind: pIC50

A selection of reference data follows.
1. N=C1SCC(=O)N1c1ncc(Cc2ccc(F)cc2)s1 = < 4.49
2. COc1ccc(OC)c2c1C(=O)C(Cl)=C(Cl)C2=O = < 4.49

Looking up `Cc1ccc(NC(=O)c2cc(N3C(=O)C=CC3=O)ccc2N2CCOCC2)cc1` , I found its pIC50 recorded as 4.62

Looking up `NC(=S)N/N=C/c1ncc(C(F)(F)F)cc1Cl` , I found its pIC50 recorded as < 4.49

###

Molecular target: Induced myeloid leukemia cell differentiation protein Mcl-1 (Homo sapiens)
Sequence (Q07820 whole entry): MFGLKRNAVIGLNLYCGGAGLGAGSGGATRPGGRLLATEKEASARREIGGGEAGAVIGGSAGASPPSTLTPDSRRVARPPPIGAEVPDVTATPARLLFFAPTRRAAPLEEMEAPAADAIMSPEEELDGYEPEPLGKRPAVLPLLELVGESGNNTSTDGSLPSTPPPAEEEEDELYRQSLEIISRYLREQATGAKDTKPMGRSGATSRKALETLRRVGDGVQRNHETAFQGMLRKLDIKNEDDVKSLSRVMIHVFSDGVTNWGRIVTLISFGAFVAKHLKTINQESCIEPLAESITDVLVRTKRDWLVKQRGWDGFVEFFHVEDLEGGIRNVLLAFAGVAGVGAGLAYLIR
Format: functional
Calls of active or inactive are those of the source.
measurement.kind: IC50

A selection of reference data follows.
1) O=C(Nc1ccccc1Cl)c1cnccn1 = 8.55 µM (not active)
2) COc1cccc(C(=O)Nc2ccc3nc(N4CCN(c5ncccn5)CC4)cc(C)c3c2)c1OC = 5.6 µM (active)

Looking up `O=C(NN1C(=O)/C(=C/C=C/c2ccco2)SC1=S)c1ccncc1` , I found its IC50 recorded as 5.08 µM (active)

Looking up COc1cccc(NS(=O)(=O)c2ccc3c(c2)C2C=CCC2C(c2ccc(C(=O)O)cc2)N3)c1 (centres undefined) , I found its IC50 recorded as 2.32 µM (active)

###

Target: Orexin/Hypocretin receptor type 1 (Homo sapiens)
Sequence (O43613 whole entry): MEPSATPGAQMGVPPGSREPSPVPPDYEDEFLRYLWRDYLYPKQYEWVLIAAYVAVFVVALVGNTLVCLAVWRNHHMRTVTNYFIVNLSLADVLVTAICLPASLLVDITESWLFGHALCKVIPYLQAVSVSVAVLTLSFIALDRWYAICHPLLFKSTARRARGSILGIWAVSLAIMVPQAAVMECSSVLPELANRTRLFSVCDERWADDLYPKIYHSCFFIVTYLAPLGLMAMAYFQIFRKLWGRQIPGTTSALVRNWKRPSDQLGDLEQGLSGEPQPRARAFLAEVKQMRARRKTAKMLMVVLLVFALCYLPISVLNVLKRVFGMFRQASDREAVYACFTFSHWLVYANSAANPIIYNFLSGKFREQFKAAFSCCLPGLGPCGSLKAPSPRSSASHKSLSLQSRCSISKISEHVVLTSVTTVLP
Test: Fluorescence-based cell-based high throughput dose response assay for antagonists of the orexin 1 receptor (OX1R; HCRTR1). [Related pubchem assays (depositor defined):AID434989, AID435008, AID463079, AID485270, AID492963, AID492964, AID492965, AID493232, AID504717, AID504718]
Format: functional
Activity calls are given as the source filed them.
Outcomes you can answer with include only these: yes (1) = active, no (0) = inactive

For `N#Cc1cccn1-c1nccc(-c2cccs2)n1` , what call appears in the results of this test?
no (0)

For `O=C(OCc1cc(=O)n2c(n1)sc1ccccc12)c1cccc(O)c1` , what call appears in the results of this test?
yes (1)

For `COc1ccc(CNC(=O)COC(=O)[C@H](Cc2c[nH]c3ccccc23)NC(=O)c2cccs2)cc1` , what call appears in the results of this test?
no (0)

For `CC(C)n1c(=O)[nH][nH]c1=S` , what call appears in the results of this test?
no (0)

###

Target: Protein RecA (Mycobacterium tuberculosis)
Experiment: Fluorescence Cell-Free Homogeneous Dose Retest to Identify Inhibitors of RecA-Intein Splicing Activity. [Related pubchem assays (depositor defined):AID2097, AID2223, AID489010, AID492950]
Format: functional
Calls of active or inactive are those of the source.
measurement.kind: EC50

A selection of reference data follows.
1. N#CCCN(C(=O)CCl)c1cccc(Cl)c1 = 8640 nM (active)
2. Cc1ccc(-n2nc(C)c3c2OC(N)=C(C#N)C3c2ccoc2)cc1 (configuration not stated) = 2560 nM (active)
3. c1cncc(CNc2ncnc3sc4c(c23)CCCC4)c1 = > 380000 nM (inactive)
4. N#CC1=C(N)Oc2[nH]nc(-c3ccc(F)cc3)c2C1c1cccc(OC(=O)N2CCOCC2)c1 (configuration not stated) = 1290 nM (active)
5. O=C(OCn1ncc(Br)c(Br)c1=O)c1ccccc1Cl = 472 nM (active)
6. Cc1ccc(O)c(/N=C/C2=C(O)c3ccccc3C2=O)c1 = 216 nM (active)

Looking up `Cc1[nH]n(-c2ccccc2)c(=O)c1Sc1ccc(Cl)cc1` , I found its EC50 recorded as 4680 nM (active)

###

Target: Orexin/Hypocretin receptor type 1 (Homo sapiens)
Assay: Homogeneous Time Resolved Fluorescence (HTRF)-based cell-based high throughput dose response assay for antagonists of the orexin 1 receptor (OX1R; HCRTR1). [Related pubchem assays (depositor defined):AID434989, AID435008, AID463079, AID485270, AID492963, AID492964, AID492965, AID493232, AID504717, AID504718]
Assay type: functional
Active and inactive are the calls of the source.
Outcomes you can answer with include only these: Yes for active, No for inactive

1) COc1ccc(CNC(=O)COC(=O)[C@H](Cc2c[nH]c3ccccc23)NC(=O)c2cccs2)cc1 = No
2) N#Cc1cccn1-c1nccc(-c2cccs2)n1 = Yes

For `CC(C)n1c(=O)[nH][nH]c1=S` , what call appears in the results of this test?
Yes

For `O=C(OCc1cc(=O)n2c(n1)sc1ccccc12)c1cccc(O)c1` , what call appears in the results of this test?
Yes

###

Assay: NIH3T3 cell viability loss – ATP luminescence, mouse fibroblasts, counter-screen, dose response (AID 2010);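 further: cells exposed to compound for about 90 hours before reading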
Assay type: functional, cell-based
The source made the active and inactive calls.
Each entry below carries its reported EC50.

A selection of reference data follows.
1. C/C(=N\NC(=O)c1nnn(-c2nonc2N)c1CN(C)c1ccccc1)c1ccccc1O = 5.57 µM (active)
2. Cc1ccc(C)c2nc3sc(C(=O)N4CCCc5ccccc54)c(N)c3cc12 = > 60 µM (not active)

Looking up `C=CCN(C(=O)CSc1nc2c(sc3ccccc32)c(=O)n1CCN(CC)CC)c1ccccc1` , I found its EC50 recorded as 11 µM (active)

Looking up `O=C(OCn1ncc(Br)c(Br)c1=O)c1ccccc1Cl` , I found its EC50 recorded as 1.88 µM (active)

Looking up `Fc1ccc(CN2CCCN(Cc3nc(-c4ccc5c(c4)OCO5)no3)CC2)cc1` , I found its EC50 recorded as > 60 µM (inconclusive)

###

Target: UniProt P08684
Sequence (P08684 whole entry): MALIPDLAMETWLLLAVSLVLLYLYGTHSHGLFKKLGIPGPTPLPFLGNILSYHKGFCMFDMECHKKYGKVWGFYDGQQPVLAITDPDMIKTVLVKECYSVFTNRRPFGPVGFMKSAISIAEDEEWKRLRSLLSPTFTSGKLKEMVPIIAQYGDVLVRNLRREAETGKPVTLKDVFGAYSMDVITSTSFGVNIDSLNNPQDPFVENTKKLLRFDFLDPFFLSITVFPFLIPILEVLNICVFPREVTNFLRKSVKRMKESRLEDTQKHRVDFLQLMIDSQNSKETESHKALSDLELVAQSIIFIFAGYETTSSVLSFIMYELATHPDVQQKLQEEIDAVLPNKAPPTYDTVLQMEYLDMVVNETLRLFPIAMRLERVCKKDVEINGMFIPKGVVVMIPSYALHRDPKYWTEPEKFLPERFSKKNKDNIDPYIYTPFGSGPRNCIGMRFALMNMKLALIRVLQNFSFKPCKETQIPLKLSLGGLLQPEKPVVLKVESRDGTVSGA
Details: Potency
Each entry below carries its reported AC50.

A selection of reference data follows.
1) COC(=O)C1OC(=O)C2O[C@@]23[C@]2(C)C(OC(C)=O)CC4C(C)(C)C(=O)CC[C@]4(C)C2CC[C@@]13C (some centres undefined) = 39.8 µM (inconclusive)
2) CC(=O)OCC1=C(C(=O)O)N2C(=O)C(NC(=O)Cc3cccs3)C2SC1 (centres undefined) = 31.6 µM (inconclusive)
3) COc1cccc(C2C(C)CCC3C(=O)N(C)C(C(C)C)C(=O)N32)c1 (centres undefined) = 2 µM (inconclusive)

Now for another entry.
Looking up CC(C)CC(C)Nc1ccc(Nc2ccccc2)cc1 (centres undefined) , I found its AC50 recorded as 25.1 µM (inconclusive)
